Measured values drawn from patent US11059823B2 for this set.

assayMethodText: Plasma and colon concentrations after p.o. dosing (Protocols 1 and 2)
Assay type: in vivo, female C57BL/6 mice
conditionLabel: female, C57BL/6, mouse, plasma, po; mice, 25 mg/kg p.o., Time = 2 h
reportedProperty: concentration at 2 h (ng/mL)
Please state the figure in ng/mL; there is no need to write the unit.

Q: Look up concentration at 2 h: N#CC[C@H]1CC[C@H](n2c(-c3c[nH]cn3)nc3cnc4[nH]ccc4c32)CC1 [Ex. 2]
A: 4.2

* * *

assayMethodText: Plasma and colon concentrations after p.o. dosing (Protocols 1 and 2)
Assay type: in vivo, female C57BL/6 mice
conditionLabel: female, C57BL/6, mouse, colon, po; mice, 25 mg/kg p.o., Time = 4 h; read-out: Colon Concentration After p.o. Dosing, Mean
reportedProperty: concentration at 4 h
A bare number is not enough; add the unit after it.

Q: Would you mind telling me what concentration at 4 h value was observed for `N#CC[C@H]1CC[C@H](n2c(-c3c[nH]cn3)nc3cnc4[nH]ccc4c32)CC1` ?
A: 7600 ng/g
